Assay: activity coefficient (dimensionless); of the first substance listed, at infinite dilution; xn = mol fraction of the nth substance listed
Conditions: 368.15 K; 101 kPa; Liquid; Chromatography; x1 = 0
REPORTED PROPERTY: activity coefficient
// return just the number, without any unit appended

GET /value?item= CCC(C)(C)C [2,2-dimethylbutane] + CCCC[N+]1(C)CCOCC1.N#C[C-](C#N)C#N &field=activity coefficient returns 34.8

GET /value?item= CCOCC [diethyl ether] + CCCC[N+]1(C)CCOCC1.N#C[C-](C#N)C#N &field=activity coefficient returns 5.16

GET /value?item= CC(C)CC(C)(C)C [2,2,4-trimethylpentane] + CCCC[N+]1(C)CCOCC1.N#C[C-](C#N)C#N &field=activity coefficient returns 64.5

GET /value?item= Cc1ccccc1C [1,2-dimethylbenzene] + CCCC[N+]1(C)CCOCC1.N#C[C-](C#N)C#N &field=activity coefficient returns 3.08

GET /value?item= CCO [ethanol] + CCCC[N+]1(C)CCOCC1.N#C[C-](C#N)C#N &field=activity coefficient returns 0.965

GET /value?item= CC(C)OC(C)C [diisopropyl ether] + CCCC[N+]1(C)CCOCC1.N#C[C-](C#N)C#N &field=activity coefficient returns 15.6

GET /value?item= CO [methanol] + CCCC[N+]1(C)CCOCC1.N#C[C-](C#N)C#N &field=activity coefficient returns 0.677

GET /value?item= C#CCCCCCC [1-octyne] + CCCC[N+]1(C)CCOCC1.N#C[C-](C#N)C#N &field=activity coefficient returns 11.8

GET /value?item= CCCC(C)=O [pentan-2-one] + CCCC[N+]1(C)CCOCC1.N#C[C-](C#N)C#N &field=activity coefficient returns 1.54

====

Assay: activity coefficient (dimensionless); of the first substance listed, at infinite dilution; xn = mol fraction of the nth substance listed
Settings: 358.15 K; 101 kPa; Liquid; Chromatography; x1 = 0
REPORTED PROPERTY: activity coefficient

GET /value?item= C=CCCCCC [1-heptene] + CCCC[N+]1(C)CCOCC1.N#C[C-](C#N)C#N &field=activity coefficient returns 27.2

GET /value?item= CC(C)(C)O [2-methylpropan-2-ol] + CCCC[N+]1(C)CCOCC1.N#C[C-](C#N)C#N &field=activity coefficient returns 1.63

GET /value?item= c1ccsc1 [thiophene] + CCCC[N+]1(C)CCOCC1.N#C[C-](C#N)C#N &field=activity coefficient returns 1.1

GET /value?item= CO [methanol] + CCCC[N+]1(C)CCOCC1.N#C[C-](C#N)C#N &field=activity coefficient returns 0.704

GET /value?item= CCCCCCCC [octane] + CCCC[N+]1(C)CCOCC1.N#C[C-](C#N)C#N &field=activity coefficient returns 86.5

====

Test: activity coefficient (dimensionless); of the first substance listed, at infinite dilution; xn = mol fraction of the nth substance listed
Details: 318.15 K; 101 kPa; Liquid; Chromatography; x1 = 0
Is activity coefficient at least 2? Then MET. If not, NOT MET.

Problem: Item CC(C)CO [2-methyl-1-propanol] + CCCC[N+]1(C)CCOCC1.N#C[C-](C#N)C#N with activity coefficient of 2 or above?
Solution: MET

Problem: Item C=CCCCCC [1-heptene] + CCCC[N+]1(C)CCOCC1.N#C[C-](C#N)C#N with activity coefficient of 2 or above?
Solution: MET

Problem: Item CC1CCCCC1 [methylcyclohexane] + CCCC[N+]1(C)CCOCC1.N#C[C-](C#N)C#N with activity coefficient of 2 or above?
Solution: MET

Problem: Item COC(C)(C)C [2-methoxy-2-methylpropane] + CCCC[N+]1(C)CCOCC1.N#C[C-](C#N)C#N with activity coefficient of 2 or above?
Solution: MET

Problem: Item CCCC=O [butanal] + CCCC[N+]1(C)CCOCC1.N#C[C-](C#N)C#N with activity coefficient of 2 or above?
Solution: NOT MET

Problem: Item CCCCC [pentane] + CCCC[N+]1(C)CCOCC1.N#C[C-](C#N)C#N with activity coefficient of 2 or above?
Solution: MET

Problem: Item CCCC(C)=O [pentan-2-one] + CCCC[N+]1(C)CCOCC1.N#C[C-](C#N)C#N with activity coefficient of 2 or above?
Solution: NOT MET

Problem: Item C=CCCCC [hex-1-ene] + CCCC[N+]1(C)CCOCC1.N#C[C-](C#N)C#N with activity coefficient of 2 or above?
Solution: MET

Problem: Item CCC(=O)CC [pentan-3-one] + CCCC[N+]1(C)CCOCC1.N#C[C-](C#N)C#N with activity coefficient of 2 or above?
Solution: NOT MET

====

Experiment: activity coefficient (dimensionless); of the first substance listed, at infinite dilution; xn = mol fraction of the nth substance listed
Settings: 318.15 K; 101 kPa; Liquid; Chromatography; x1 = 0
REPORTED PROPERTY: activity coefficient
// return just the number, without any unit appended

GET /value?item= CC(C)(C)O [2-methylpropan-2-ol] + CCCC[N+]1(C)CCOCC1.N#C[C-](C#N)C#N &field=activity coefficient returns 2

GET /value?item= C1CCCCCC1 [cycloheptane] + CCCC[N+]1(C)CCOCC1.N#C[C-](C#N)C#N &field=activity coefficient returns 28.1

GET /value?item= C1CCCC1 [cyclopentane] + CCCC[N+]1(C)CCOCC1.N#C[C-](C#N)C#N &field=activity coefficient returns 14.7

GET /value?item= COC(C)=O [methyl ethanoate] + CCCC[N+]1(C)CCOCC1.N#C[C-](C#N)C#N &field=activity coefficient returns 1.2

GET /value?item= CCOC(C)(C)C [2-ethoxy-2-methylpropane] + CCCC[N+]1(C)CCOCC1.N#C[C-](C#N)C#N &field=activity coefficient returns 16.8

GET /value?item= C#CCCCCCC [1-octyne] + CCCC[N+]1(C)CCOCC1.N#C[C-](C#N)C#N &field=activity coefficient returns 12.8

GET /value?item= CC(C)=O [acetone] + CCCC[N+]1(C)CCOCC1.N#C[C-](C#N)C#N &field=activity coefficient returns 0.741

GET /value?item= CCCCO [butan-1-ol] + CCCC[N+]1(C)CCOCC1.N#C[C-](C#N)C#N &field=activity coefficient returns 2.18

GET /value?item= CCC[N+](=O)[O-] [1-nitropropane] + CCCC[N+]1(C)CCOCC1.N#C[C-](C#N)C#N &field=activity coefficient returns 0.982

====

Answer each item with its documented activity coefficient.
Assay: activity coefficient (dimensionless); of the first substance listed, at infinite dilution; xn = mol fraction of the nth substance listed
Conditions: 358.15 K; 101 kPa; Liquid; Chromatography; x1 = 0

GET /value?item= Cc1ccccc1 [toluene] + CCCC[N+]1(C)CCOCC1.N#C[C-](C#N)C#N &field=activity coefficient returns 2.41

GET /value?item= CCCCO [butan-1-ol] + CCCC[N+]1(C)CCOCC1.N#C[C-](C#N)C#N &field=activity coefficient returns 1.7

GET /value?item= CCOC(C)(C)C [2-ethoxy-2-methylpropane] + CCCC[N+]1(C)CCOCC1.N#C[C-](C#N)C#N &field=activity coefficient returns 14.9

GET /value?item= CCCCCC [hexane] + CCCC[N+]1(C)CCOCC1.N#C[C-](C#N)C#N &field=activity coefficient returns 40.3

GET /value?item= C#CCCCCC [1-heptyne] + CCCC[N+]1(C)CCOCC1.N#C[C-](C#N)C#N &field=activity coefficient returns 8.13

GET /value?item= COC(C)(C)C [2-methoxy-2-methylpropane] + CCCC[N+]1(C)CCOCC1.N#C[C-](C#N)C#N &field=activity coefficient returns 5.77

GET /value?item= CCc1ccccc1 [ethylbenzene] + CCCC[N+]1(C)CCOCC1.N#C[C-](C#N)C#N &field=activity coefficient returns 3.75

GET /value?item= CCC[N+](=O)[O-] [1-nitropropane] + CCCC[N+]1(C)CCOCC1.N#C[C-](C#N)C#N &field=activity coefficient returns 1.01

====

Assay: activity coefficient (dimensionless); of the first substance listed, at infinite dilution; xn = mol fraction of the nth substance listed
Conditions: 348.15 K; 101 kPa; Liquid; Chromatography; x1 = 0
Is activity coefficient at least 4? Then condition met. If not, condition not met.

Problem: Item C=CCCCCC [1-heptene] + CCCC[N+]1(C)CCOCC1.N#C[C-](C#N)C#N with activity coefficient of 4 or above?
Solution: condition met

Problem: Item C=CCCCC [hex-1-ene] + CCCC[N+]1(C)CCOCC1.N#C[C-](C#N)C#N with activity coefficient of 4 or above?
Solution: condition met

Problem: Item CCC(=O)OC [methyl propanoate] + CCCC[N+]1(C)CCOCC1.N#C[C-](C#N)C#N with activity coefficient of 4 or above?
Solution: condition not met

Problem: Item CCCC=O [butanal] + CCCC[N+]1(C)CCOCC1.N#C[C-](C#N)C#N with activity coefficient of 4 or above?
Solution: condition not met

Problem: Item COC(C)=O [methyl ethanoate] + CCCC[N+]1(C)CCOCC1.N#C[C-](C#N)C#N with activity coefficient of 4 or above?
Solution: condition not met

Problem: Item C#CCCCCC [1-heptyne] + CCCC[N+]1(C)CCOCC1.N#C[C-](C#N)C#N with activity coefficient of 4 or above?
Solution: condition met

Problem: Item C=Cc1ccccc1 [styrene] + CCCC[N+]1(C)CCOCC1.N#C[C-](C#N)C#N with activity coefficient of 4 or above?
Solution: condition not met

Problem: Item Cc1cccc(C)c1 [1,3-dimethylbenzene] + CCCC[N+]1(C)CCOCC1.N#C[C-](C#N)C#N with activity coefficient of 4 or above?
Solution: condition not met

Problem: Item CC1CCCCC1 [methylcyclohexane] + CCCC[N+]1(C)CCOCC1.N#C[C-](C#N)C#N with activity coefficient of 4 or above?
Solution: condition met
